- Test system: TK-10 renal
- assay-procedure: NCI tumour cell line growth inhibition, 48 h; in the data active = GI50 below about 0.43 µM; inactive = the rest
Classes used: true (1) for active, false (0) for inactive

> print(dat)
                                   molecule  class.name
1  C1C[OH+]CC[OH+]CCNCC[OH+]CC[OH+]CCN1.[Cl-].[Pt+4]   false (0)
2  CCc1n(Cc2ccc3ccccc3n2)cc[n+]1Cc1ccc2ccccc2n1   false (0)
3     Oc1ccc(C(c2ccc(O)cc2)c2ccc(Cl)cn2)cc1    true (1)
4  COc1ccc2c(c1)C(=O)c1c-2n(CCCN=[N+]=[N-])c(=O)c2cc(N(C)C)ccc12   false (0)
5  C/C(=N\O)c1cccc(Nc2cc(-n3ccnn3)c3ccccc3n2)c1   false (0)
6  O=C(/C=C/C12c3ccccc3C(c3ccccc31)C1C(=O)N(c3ccccc3)C(=O)C12)c1ccccc1 (stereo unspecified)   false (0)
